Tested on: HT-29
assay_comment: Cytotoxicity against human HT-29 cells assessed as reduction in cell viability at 100 uM measured for 16 to 24 hrs by Cell-titer-glo assay
Assay type: functional, cell-based
experimental_setup: time 16-24 hrs
Active and inactive are the calls of the source. No cut-off for these calls is given here.
quantity_kind: Activity

Some molecules with known Activity results, for comparison:
- entry_smiles: "CN1C(=S)[C@@H](NC(=O)c2n[nH]c(Cc3ccccc3)n2)COc2ccc(C#Cc3cccc(OC(F)(F)F)c3)cc21"
  readout_value: "inactive"
- entry_smiles: "COC(=O)c1ccc(C#Cc2ccc3c(c2)N(C)C(=S)[C@@H](NC(=O)c2n[nH]c(Cc4ccccc4)n2)CO3)cc1"
  readout_value: "inactive"
- entry_smiles: "CN1C(=S)[C@@H](NC(=O)c2n[nH]c(Cc3ccccc3)n2)COc2ccc(C#Cc3ccc(F)cc3)cc21"
  readout_value: "inactive"
- entry_smiles: "COc1cccc(C#Cc2ccc3c(c2)N(C)C(=S)[C@@H](NC(=O)c2n[nH]c(Cc4ccccc4)n2)CO3)c1"
  readout_value: "inactive"

State, in one line, measured Activity of CN1C(=S)[C@@H](NC(=O)c2n[nH]c(Cc3ccccc3)n2)COc2ccc(C#Cc3cccc(C(F)(F)F)c3)cc21
inactive

For CN1C(=S)[C@@H](NC(=O)c2n[nH]c(Cc3ccccc3)n2)COc2ccc(C#C[Si](C)(C)C)cc21 , write its Activity.
inactive

Give Activity for CN1C(=S)[C@@H](NC(=O)c2n[nH]c(Cc3ccccc3)n2)COc2ccc(C#Cc3ccccc3OC(F)(F)F)cc21
inactive

Report Activity for COc1ccccc1C#Cc1ccc2c(c1)N(C)C(=S)[C@@H](NC(=O)c1n[nH]c(Cc3ccccc3)n1)CO2
inactive
